Tested on: LXF-289
Assay: relative viability (nuclei count vs DMSO), 5 days (fraction); higher = more cells survive
Details: first compound 1.265 µM
The label true is reserved for relative viability strictly under 0.7; false covers values equal to or above it.

{"columns": ["Compound", "Assay target", "Category"],
 "data": [
  ["Clc1ccc(Nc2nnc(Cc3ccncc3)c3ccccc23)cc1 [Vatalanib] + Cc1nc(NC(=O)N2CCC[C@H]2C(N)=O)sc1-c1ccnc(C(C)(C)C(F)(F)F)c1 [Alpelisib] (partner 2 µM)", "LXF-289", "false"],
  ["COc1cc(N2CCC(C(N)=O)CC2)ccc1Nc1nc(N)c(Cl)c(Nc2ccccc2S(=O)(=O)C(C)C)n1 [HG-5-88-01] + Nc1nc2[nH]cc(CCc3ccc(C(=O)N[C@@H](CCC(=O)O)C(=O)O)cc3)c2c(=O)[nH]1 [Pemetrexed] (partner 0.2 µM)", "LXF-289", "false"],
  ["Clc1ccc(Nc2nnc(Cc3ccncc3)c3ccccc23)cc1 [Vatalanib] + CCNC(=O)c1noc(-c2cc(C(C)C)c(O)cc2O)c1-c1ccc(CN2CCOCC2)cc1 [Luminespib] (partner 0.01 µM)", "LXF-289", "true"],
  ["COc1cc(N2CCC(C(N)=O)CC2)ccc1Nc1nc(N)c(Cl)c(Nc2ccccc2S(=O)(=O)C(C)C)n1 [HG-5-88-01] + Cc1nc(Nc2ncc(C(=O)Nc3c(C)cccc3Cl)s2)cc(N2CCN(CCO)CC2)n1 [Dasatinib] (partner 0.075 µM)", "LXF-289", "true"],
  ["COc1cc(N2CCC(C(N)=O)CC2)ccc1Nc1nc(N)c(Cl)c(Nc2ccccc2S(=O)(=O)C(C)C)n1 [HG-5-88-01] + CC(=O)Nc1cccc(-n2c(=O)n(C3CC3)c(=O)c3c(Nc4ccc(I)cc4F)n(C)c(=O)c(C)c32)c1 [Trametinib] (partner 0.02 µM)", "LXF-289", "true"]
]}

Turning now to a further record.
Problem: Answer whether the compound COc1cc(N2CCC(C(N)=O)CC2)ccc1Nc1nc(N)c(Cl)c(Nc2ccccc2S(=O)(=O)C(C)C)n1 [HG-5-88-01] + Cc1cc(Nc2cc(N3CCN(C)CC3)nc(Sc3ccc(NC(=O)C4CC4)cc3)n2)n[nH]1 [Tozasertib] (partner 0.1 µM) has relative viability strictly less than 0.7
Result: true
